# Test: Mouse microsomal stability assay
# Type: in vitro ADME
# Measurement Conditions: pH 7.4; mouse liver microsomes, NADPH; read-out: In vitro metabolic stability t1/2 (min) in liver microsomes
Measured Quantity: half-life at 1 µM (min)
One number for each entry, in min.

Report half-life at 1 µM for COc1ccc2c(c1)[C@]13CCCC[C@@H]1[C@H](C2)N(C)CC3 [dextromethorphan, reference compound]
16

====

# Target Entity: S. aureus GyrB (Staphylococcus aureus, UniProt P0A0K8)
# Construct: purchased Inspiralis Ltd., Norwich, UK
# Sequence (P0A0K8 whole entry): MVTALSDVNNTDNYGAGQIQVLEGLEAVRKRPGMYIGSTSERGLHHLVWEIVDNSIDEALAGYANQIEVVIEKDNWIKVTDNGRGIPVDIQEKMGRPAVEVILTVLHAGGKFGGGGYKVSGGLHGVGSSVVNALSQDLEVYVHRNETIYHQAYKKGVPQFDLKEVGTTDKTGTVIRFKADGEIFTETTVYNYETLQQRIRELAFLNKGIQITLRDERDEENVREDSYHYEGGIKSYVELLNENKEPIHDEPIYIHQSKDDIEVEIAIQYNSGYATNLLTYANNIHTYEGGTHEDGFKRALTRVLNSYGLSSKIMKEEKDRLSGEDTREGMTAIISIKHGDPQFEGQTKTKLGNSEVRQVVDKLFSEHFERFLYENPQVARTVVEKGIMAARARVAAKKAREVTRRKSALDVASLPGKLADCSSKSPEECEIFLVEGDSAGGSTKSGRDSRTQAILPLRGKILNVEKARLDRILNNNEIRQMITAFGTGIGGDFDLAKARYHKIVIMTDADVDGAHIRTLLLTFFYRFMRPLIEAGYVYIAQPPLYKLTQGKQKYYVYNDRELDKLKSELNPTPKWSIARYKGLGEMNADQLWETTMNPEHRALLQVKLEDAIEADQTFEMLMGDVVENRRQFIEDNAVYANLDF
# Sequence (P20831 whole entry, further chain): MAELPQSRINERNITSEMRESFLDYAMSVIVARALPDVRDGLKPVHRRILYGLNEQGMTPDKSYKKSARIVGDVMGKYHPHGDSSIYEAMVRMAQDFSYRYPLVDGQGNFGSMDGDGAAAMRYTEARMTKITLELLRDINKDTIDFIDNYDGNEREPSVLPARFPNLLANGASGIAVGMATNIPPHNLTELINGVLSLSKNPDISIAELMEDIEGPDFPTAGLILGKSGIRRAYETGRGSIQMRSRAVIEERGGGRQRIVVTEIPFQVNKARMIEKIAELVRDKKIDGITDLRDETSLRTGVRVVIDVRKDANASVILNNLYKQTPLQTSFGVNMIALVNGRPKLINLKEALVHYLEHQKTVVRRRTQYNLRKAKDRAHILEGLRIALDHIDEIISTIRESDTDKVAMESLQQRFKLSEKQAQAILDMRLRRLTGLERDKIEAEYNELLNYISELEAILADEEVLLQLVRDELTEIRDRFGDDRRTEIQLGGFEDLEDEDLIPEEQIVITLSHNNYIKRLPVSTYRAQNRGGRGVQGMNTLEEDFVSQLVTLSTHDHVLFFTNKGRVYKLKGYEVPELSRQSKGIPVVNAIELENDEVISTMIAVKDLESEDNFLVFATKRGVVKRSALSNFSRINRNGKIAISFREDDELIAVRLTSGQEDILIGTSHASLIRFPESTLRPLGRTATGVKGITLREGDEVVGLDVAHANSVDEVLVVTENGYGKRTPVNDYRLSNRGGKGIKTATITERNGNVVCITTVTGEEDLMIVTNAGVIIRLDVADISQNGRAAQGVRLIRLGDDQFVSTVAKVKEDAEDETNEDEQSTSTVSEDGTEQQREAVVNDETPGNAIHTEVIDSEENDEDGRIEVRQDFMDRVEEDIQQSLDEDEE
# Test: S. aureus GyrB (Gyrase ATPase) inhibition assay, ADP-Glo
# Assay type: biochemical
# Measurement Conditions: read-out: GyrB inhibition rate (%) at 10 μM
The threshold is inclusive: inhibition at 10 µM of exactly 10% counts as true (1); values below receive false (0).

Use the examples below as a reference point.
CCCCCCn1c(=O)c(C(=O)Nc2ccc(Cl)cn2)c(O)c2ccccc21 [AG-690/11557825] :: false (0)
O=C(Nc1ccccc1-c1ccccc1)c1c(O)c2cccc3c2n(c1=O)CCC3 [AE-641/00629040] :: true (1)
CCCCCCn1c(=O)c(C(=O)Nc2ccccc2Br)c(O)c2ccccc21 [AG-690/11232728] :: true (1)

From here, focus on the item given below.
inhibition at 10 µM >= 10% for Cc1noc(NC(=O)c2c(O)c3cccc4c3n(c2=O)CCC4)c1C [AE-641/00628057] ?
false (0)
